Target: CDK4 (Homo sapiens, UniProt P11802+Q16531)
Sequence (P11802 whole entry): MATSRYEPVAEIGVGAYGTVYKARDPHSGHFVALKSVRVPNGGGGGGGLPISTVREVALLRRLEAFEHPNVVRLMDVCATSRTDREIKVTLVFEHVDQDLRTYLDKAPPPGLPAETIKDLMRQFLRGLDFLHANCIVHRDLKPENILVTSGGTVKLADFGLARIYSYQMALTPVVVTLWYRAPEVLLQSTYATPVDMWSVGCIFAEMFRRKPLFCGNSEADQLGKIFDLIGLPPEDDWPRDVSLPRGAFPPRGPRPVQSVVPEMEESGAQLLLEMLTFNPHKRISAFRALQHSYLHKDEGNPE
Sequence (P24385 whole entry partner): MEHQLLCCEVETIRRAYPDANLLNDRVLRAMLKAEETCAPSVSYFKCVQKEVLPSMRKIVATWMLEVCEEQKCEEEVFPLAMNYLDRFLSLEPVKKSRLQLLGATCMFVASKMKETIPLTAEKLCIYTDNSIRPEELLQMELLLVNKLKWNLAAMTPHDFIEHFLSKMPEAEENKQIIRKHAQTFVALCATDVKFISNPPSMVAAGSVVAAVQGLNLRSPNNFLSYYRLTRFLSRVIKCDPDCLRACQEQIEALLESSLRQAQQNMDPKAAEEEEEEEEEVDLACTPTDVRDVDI
Sequence (Q16531 2-1140 limits assumed): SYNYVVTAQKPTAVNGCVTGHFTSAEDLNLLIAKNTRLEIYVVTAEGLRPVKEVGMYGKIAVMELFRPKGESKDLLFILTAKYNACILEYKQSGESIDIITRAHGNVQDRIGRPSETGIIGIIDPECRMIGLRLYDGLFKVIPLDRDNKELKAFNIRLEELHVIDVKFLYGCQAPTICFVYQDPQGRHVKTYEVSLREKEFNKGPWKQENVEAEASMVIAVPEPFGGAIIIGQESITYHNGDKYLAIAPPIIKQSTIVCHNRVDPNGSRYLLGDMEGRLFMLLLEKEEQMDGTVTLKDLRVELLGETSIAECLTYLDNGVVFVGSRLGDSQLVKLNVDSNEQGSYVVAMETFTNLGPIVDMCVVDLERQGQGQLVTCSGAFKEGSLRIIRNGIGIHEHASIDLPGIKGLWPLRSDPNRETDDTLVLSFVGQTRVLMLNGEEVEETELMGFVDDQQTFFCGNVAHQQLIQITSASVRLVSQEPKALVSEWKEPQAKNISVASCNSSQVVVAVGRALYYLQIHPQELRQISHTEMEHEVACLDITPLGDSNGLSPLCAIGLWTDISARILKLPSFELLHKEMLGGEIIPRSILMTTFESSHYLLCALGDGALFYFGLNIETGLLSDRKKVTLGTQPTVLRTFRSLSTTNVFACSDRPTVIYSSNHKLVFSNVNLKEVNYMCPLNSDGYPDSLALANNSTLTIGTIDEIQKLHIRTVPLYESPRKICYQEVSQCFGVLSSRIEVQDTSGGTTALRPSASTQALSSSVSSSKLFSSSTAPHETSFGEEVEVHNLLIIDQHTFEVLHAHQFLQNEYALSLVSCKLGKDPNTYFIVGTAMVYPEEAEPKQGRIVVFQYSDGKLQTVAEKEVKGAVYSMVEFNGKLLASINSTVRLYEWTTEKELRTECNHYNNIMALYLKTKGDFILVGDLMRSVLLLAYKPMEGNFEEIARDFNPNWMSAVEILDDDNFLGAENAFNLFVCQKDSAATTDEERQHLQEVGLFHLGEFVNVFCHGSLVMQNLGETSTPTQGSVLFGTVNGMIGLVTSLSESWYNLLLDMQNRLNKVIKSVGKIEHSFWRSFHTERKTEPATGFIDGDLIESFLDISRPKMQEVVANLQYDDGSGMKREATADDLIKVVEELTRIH
Experiment: HiBiT detection of HiBiT-tagged CDK4 protein level in MCF7 cells, 16 hours (Table 8)
Type: cell-based
Set-up: expressed in transfected cells; host or cells: MCF7
Details: 10 nM, MCF7 cells stably expressing HiBiT tagged target proteins, read-out: % CDK4 Relative Level (10 nM)
Can you tell me activity at 0.01 µM for the items I'm about to list?

### Prompt Note activity at 0.01 µM for the molecule shown: "CNc1ccc(C(=O)Nc2ccc(N(C)C)nn2)c(NCCCCCCCC(=O)N2CCN(Cc3ccc(Nc4ncc(F)c(-c5cc(F)c6nc(C)n(C(C)C)c6c5)n4)nc3)CC2)n1"
### Response > 85%

### Prompt Note activity at 0.01 µM for the molecule shown: COc1cccc(NC(=O)c2ccc(NC(C)C)nc2NC2CC3(C2)CN(C(=O)CN2CCC4(CCN(c5ccc(Nc6ncc7c(C)c(C(C)=O)c(=O)n(C8CCCC8)c7n6)nc5)C4)C2)C3)n1 (stereo not drawn)
### Response 55 to 85%

### Prompt Note activity at 0.01 µM for the molecule shown: "CNc1ccc(C(=O)Nc2ccc(N(C)C)nn2)c(NCCOCCOCCC(=O)N2CCN(Cc3ccc(Nc4ncc(F)c(-c5cc(F)c6nc(C)n(C(C)C)c6c5)n4)nc3)CC2)n1"
### Response > 85%

### Prompt Note activity at 0.01 µM for the molecule shown: CC(=O)c1c(C)c2cnc(Nc3ccc(CN4CCN(CC(=O)N5CCC6(CC(Nc7nc(NC(C)C)ccc7C(=O)Nc7ccc(N(C)C)nn7)C6)C5)CC4)cn3)nc2n(C2CCCC2)c1=O (stereo not drawn)
### Response > 85%

### Prompt Note activity at 0.01 µM for the molecule shown: CC(=O)c1c(C)c2cnc(Nc3ccc(C(C)N4CCN(CC(=O)N5CCC6(CCC(Nc7nc(NC(C)C)ccc7C(=O)Nc7ccc(N(C)C)nn7)C6)C5)CC4)cn3)nc2n(C2CCCC2)c1=O (stereo not drawn)
### Response > 85%

### Prompt Note activity at 0.01 µM for the molecule shown: CNc1ccc(C(=O)Nc2ccc(N(C)C)nn2)c(NCCOCCC(=O)NC2CCC3(CC2)CC(Nc2ncc4ccc(=O)n(C5CCCC5)c4n2)C3)n1 (stereo not drawn)
### Response > 85%

### Prompt Note activity at 0.01 µM for the molecule shown: "CNc1ccc(C(=O)Nc2ccc(N(C)C)nn2)c(NCCCC(=O)N2CCN(c3ccc(Nc4ncc5cc(C(=O)N(C)C)n(C6CCCC6)c5n4)nc3)CC2)n1"
### Response > 85%

### Prompt Note activity at 0.01 µM for the molecule shown: CC(=O)c1c(C)c2cnc(Nc3ccc(N4CCN(C5CCN(C(=O)C67CC(Nc8nc(NC(C)C)ccc8C(=O)Nc8cc9n(n8)CCC9)(C6)C7)C5)CC4)cn3)nc2n(C2CCCC2)c1=O (stereo not drawn)
### Response 55 to 85%

### Prompt Note activity at 0.01 µM for the molecule shown: CC(=O)c1c(C)c2cnc(Nc3ccc(CN4CCC(CC(=O)NC5CC6(C5)CC(Nc5nc(NC(C)C)ccc5C(=O)Nc5ccc(N(C)C)nn5)C6)CC4)cn3)nc2n(C2CCCC2)c1=O (stereo not drawn)
### Response > 85%
